EXPERIMENT_SUMMARY: in vitro
CONDITION_DESCRIPTION: human, hela cells, % viability
Measured viability at 28.5 h, 10 µM values are reported for all entries that follow.

COMPOUND: Cc1ccc(NC(=O)c2cncnc2)c(C)n1 [CBK200380]
viability at 28.5 h, 10 µM [%]: 81.1
--
COMPOUND: CC(Nc1cc(N2CCN(CCO)CC2)ccc1[N+](=O)[O-])c1ccc(Br)cc1 (stereo not drawn) [CBK041273]
viability at 28.5 h, 10 µM [%]: 103
--
COMPOUND: COc1ccc(-c2noc([C@@H]3C[C@@H](O)CN3C3CCOCC3)n2)cc1 [CBK288844]
viability at 28.5 h, 10 µM [%]: 83.7

Measured values drawn from paper PMC12040169 for this set.
